The reported measurements were obtained from PubChem BioAssay AID1963597.

Can you tell me half-life for the items I'm about to list?
Tested on: human liver microsomes, metabolic stability half-life
RUN_DESCRIPTION: NCATS Human Liver Microsomal (HLM) Stability Profiling
MEASUREMENT_SETUP: higher = more stable; screened at 1 µM (by protocol)
Answers are plain numbers, in min.

Record excerpt, results attached:
>>> df
                                   molecule  readout_value
0  O=C(CCNc1c(-c2cccc(F)c2)nc2cnccn12)N1CCCC1           4.93
1  Cc1cn([C@@H]2O[C@H](CO)[C@@H](O)[C@H]2F)c(=O)[nH]c1=O           22.1
2  Cc1ccccc1C(=O)N1CCC(C(=O)N2CCC(N3Cc4ccccc4C3=O)CC2)CC1           93.1
3  COc1ccc2c(c1OC)C(=O)O[C@@H]2[C@H]1c2cc3c(cc2CCN1C)OCO3            103

Each molecule below has a recorded value; state its half-life.
1. Cc1ccc(C(=O)c2cc(O)c(O)c([N+](=O)[O-])c2)cc1
2. COc1cccc(C(=O)Nc2ccc3ncnc(N4CCCCC4)c3c2)c1

Result block:
1: 34.1; 2: 5.03

Each molecule below has a recorded value; state its half-life.
1. CCOC(=O)c1c(NC(=O)c2ccc(S(=O)(=O)N(C)C3CCCCC3)cc2)sc2c1CCN(C(C)C)C2
2. CCOP(=S)(Oc1cnc(C(C)(C)C)nc1)OC(C)C (configuration not stated)
3. Nc1cc(=O)[nH]c(N)n1
4. O=C(N[C@@H](COc1ccc2[nH]c(=O)[nH]c2c1)c1ccccc1)c1cccn(Cc2ccc(F)c(F)c2)c1=O
5. Cc1ccc2c(n1)Oc1ccc(C(C)C(=O)OCC(=O)N(C)C)cc1C2 (configuration not stated)
6. C=CC(=O)Nc1ccc2ncnc(Nc3cccc(Br)c3)c2c1

Result block:
1. 2.21
2. 11.1
3. 99.2
4. 42.5
5. 11.1
6. 12.5

Query block: Could you please provide reported half-life for COc1cc(C(C)=O)ccc1OCCCN1CCC(c2noc3cc(F)ccc23)CC1 ? Thanks!
Result block: 25.1
